protein stability index for assorted variants
B1: ZNF449 (parent)
chain: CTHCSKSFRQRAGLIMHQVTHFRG

# Variants of: B1
# assayRemarks: protein stability index of a GFP-peptide fusion (GPS, HEK-293T) (PSI 1-6); higher = more stable;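 also: lentivirally expressed fusions sorted by FACS into six bins by GFP to DsRed ratio, PSI derived from sequencing read proportions per bin multiplied by bin number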
# assayConditions: c terminus: a fixed tail appended
experimentalReadout: protein stability index

mutantid=F8L resultnumber=1.79
mutantid=L14P resultnumber=1.54
mutantid=Q10F resultnumber=1.9
mutantid=S5K resultnumber=2.52
mutantid=T20E resultnumber=1.99
mutantid=F8I resultnumber=2.15
mutantid=L14V resultnumber=2.37
mutantid=F22Q resultnumber=2.5
mutantid=Q10Y resultnumber=1.95
mutantid=Q18H resultnumber=1.72
mutantid=V19T resultnumber=1.88
mutantid=S5E resultnumber=1.67
mutantid=F22L resultnumber=1.93
mutantid=R23T resultnumber=2.03
mutantid=C4D resultnumber=1.66
mutantid=S5H resultnumber=2.03
mutantid=C1H resultnumber=1.96
mutantid=I15P resultnumber=1.22
mutantid=A12R resultnumber=3.35
mutantid=R9W resultnumber=2.07
mutantid=H3M resultnumber=2.42
mutantid=Q10I resultnumber=1.67
mutantid=A12G resultnumber=2.44
mutantid=Q18E resultnumber=2.09
mutantid=K6T resultnumber=2.84
mutantid=H21Y resultnumber=1.4
mutantid=R23P resultnumber=2.69
mutantid=S7Y resultnumber=2.44
mutantid=C1V resultnumber=1.64
mutantid=V19Q resultnumber=2
mutantid=G13V resultnumber=2.58
mutantid=K6C resultnumber=1.52
mutantid=R9N resultnumber=2.77
mutantid=I15G resultnumber=1.94
mutantid=R11K resultnumber=1.82
mutantid=G13I resultnumber=1.96
mutantid=M16R resultnumber=3.9
mutantid=H17T resultnumber=1.47
mutantid=S7T resultnumber=1.08
mutantid=R9L resultnumber=1.96
mutantid=G24Y resultnumber=2.41
mutantid=R11V resultnumber=2.23
mutantid=M16S resultnumber=3.15
mutantid=G24Q resultnumber=3.19
mutantid=A12N resultnumber=2.06
mutantid=C1A resultnumber=2.17
mutantid=G24K resultnumber=3.01
mutantid=R9D resultnumber=3.85
mutantid=R9M resultnumber=2.9
mutantid=T2G resultnumber=1.5
